assay: recombinant barcode read abundance after kanamycin selection (control-corrected) (log10(CPM+1)); higher = more efficient recombination; sequences stand for … in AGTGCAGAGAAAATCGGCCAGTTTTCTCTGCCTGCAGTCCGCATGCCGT…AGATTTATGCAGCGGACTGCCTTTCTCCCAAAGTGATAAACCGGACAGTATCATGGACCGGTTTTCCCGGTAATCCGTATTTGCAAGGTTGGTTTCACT; site = the 11-nt target;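 also: IS621 recombinase and bridge RNA in Escherichia coli cells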
Here the recorded recombinant barcode read abundance (log10) is given for each entry.
Quick one: just the number, no unit, thanks!

Here's what some known entries look like.
ACATTGTCTTGGGTTCTAACCTGTTGCCT (site ACGTTGTCTAG)
0.0669
ACCTTGTCTTGGGTTCTAACCTGTTGCCT (site ACTTTGTCTAG)
0.0709
TAGCCCACTTGGGTTCTAACCTGTTGCGG (site TAGCTCACTCC)
0.393
AACTGGGCTTGGGTTCTAACCTGTTGCCT (site ATCTGGGCTAG)
0.141
CCTAAACCTTGGGTTCTAACCTGTTGCGT (site CCTAAGCCTAC)
0.03
TGCCTCTCTTGGGTTCTAACCTGTTGCTA (site GTTAGACCTAG)
0.0422

// returns reported recombinant barcode read abundance (log10) for input CTAGGAGCTTGGGTTCTAACCTGTTGCTA (site CTAGGAGCTAA)
0.137

Given the sequence ATAACGGCTTGGGTTCTAACCTGTTGCCT (site ATAACGGCTAG) , what is its reported recombinant barcode read abundance (log10)?
0.434

What value of recombinant barcode read abundance (log10) has been recorded for this entry: GGGTCCACTTGGGTTCTAACCTGTTGCCT (site GGGTCCACTAA)
0.481

What does the record list as recombinant barcode read abundance (log10) for ATACGGACTTGGGTTCTAACCTGTTGCTA (site ATATGGACTTA) ?
0.0991

Query: recombinant barcode read abundance (log10); subject: GTATTTCCTTGGGTTCTAACCTGTTGCTT (site GTATCTCCTAA)
0.0837

Request the reported recombinant barcode read abundance (log10) associated with TAATCGCCTTGGGTTCTAACCTGTTGCCT (site TAATCGCCTAG)
0.126

// lookup recombinant barcode read abundance (log10) for AAGCACCCTTGGGTTCTAACCTGTTGCTG (site AAGCACCCTCA)
2.02

Quick one: recombinant barcode read abundance (log10) of CTCGCTCCTTGGGTTCTAACCTGTTGCTG (site CTCGCTCCTCA) ?
0.563

Which recombinant barcode read abundance (log10) value is on record for CAACCGTCTTGGGTTCTAACCTGTTGCCT (site CAACCGCCTAG) ?
0.439

Tell me the measured recombinant barcode read abundance (log10) of GGGACATCTTGGGTTCTAACCTGTTGCCT (site GGGGCATCTAG) , please.
0.015
